# targetEntity: T1, AFP158/HLA-A*02:01 complex (human)
# T1 construct: flowed as analyte in SPR
# assayExplanation: SPR, crude scFv captured, pMHC analyte;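 note: pMHC analyte injected at three concentrations, association phase of one hundred seconds, then running buffer for dissociation, rates fitted from both curves, KD derived from the rates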
Reported koff values for a set of binders
I only need the number, in s⁻¹, no unit after it.

Field: example entries. Status: answers known.
1) AS170036 VL1VH1-56N108A (scFv, also called 19-AS170036 VL1VH1-56N108A) scFv: QSALTQPRSVSGSPGQSVTISCAGTSSDVGSENYVSWYQQHPGKAPKLMIYQVNKRASGVPDRFSGSKSGNTASLTISGLQAEDEADYYCASYRSSDHNIVFGGGTKLTVLGGGGSGGGGSGGGGSEVQLVESGGGLVQPGGSLRLSCAASGFTFSSYAMSWVRQAPGKGLEWVSTINSGTNSPYYADSVKGRFTISRDNSKNTLYLQMNSLRAEDTAVYYCAKNFFDGSWFLAPPAMDYWGQGTLVTVSSHHHHHH    0.0036
2) AS170036 VL1VH1-56Y98F (scFv, also called 01-AS170036 VL1VH1-56Y98F) scFv: QSALTQPRSVSGSPGQSVTISCAGTSSDVGSENYVSWYQQHPGKAPKLMIYQVNKRASGVPDRFSGSKSGNTASLTISGLQAEDEADYYCASYRSSDFNIVFGGGTKLTVLGGGGSGGGGSGGGGSEVQLVESGGGLVQPGGSLRLSCAASGFTFSSYAMSWVRQAPGKGLEWVSTINSGTYSPYYADSVKGRFTISRDNSKNTLYLQMNSLRAEDTAVYYCAKNFFDGSWFLGPPAMDYWGQGTLVTVSSHHHHHH    0.0023

Below: the item to evaluate.
Prompt: Let me know recorded koff for AS170036 VL1VH1-57H108A (scFv, also called 22-AS170036 VL1VH1-57H108A) scFv: QSALTQPRSVSGSPGQSVTISCAGTSSDVGSENYVSWYQQHPGKAPKLMIYQVNKRASGVPDRFSGSKSGNTASLTISGLQAEDEADYYCASYRSSDHNIVFGGGTKLTVLGGGGSGGGGSGGGGSEVQLVESGGGLVQPGGSLRLSCAASGFTFSSYAMSWVRQAPGKGLEWVSTINSGTGHPYYADSVKGRFTISRDNSKNTLYLQMNSLRAEDTAVYYCAKNFFDGSWFLAPPAMDYWGQGTLVTVSSHHHHHH , thanks.
Response: 0.0014

Values were extracted from patent US20240279318A1.
